Kindly supply the reported Pre-emergence activity against CYPES values for the records listed here.
tested on: Cyperus esculentus (CYPES); test: Herbicidal pre-emergence action; assay type: in vivo; settings: 1280 g/ha, graded after ca. 3 weeks
Answer shape: numeric part, then the unit.

Item NC(=O)CC1CCC(=O)N1Cc1cccc(F)c1F (racemic) [Example I-057] was tested on Cyperus esculentus (CYPES); the reported Pre-emergence activity against CYPES is 100%

Item O=C(CC1CCC(=O)N1Cc1cccc(F)c1F)OCCOc1ccc(F)cc1 (racemic) [Example I-007] was tested on Cyperus esculentus (CYPES); the reported Pre-emergence activity against CYPES is 90%

Item C=CCCOC(=O)CC1CCC(=O)N1Cc1cccc(F)c1F (racemic) [Example I-026] was tested on Cyperus esculentus (CYPES); the reported Pre-emergence activity against CYPES is 90%

Item CCCC(C)OC(=O)CC1CCC(=O)N1Cc1cccc(F)c1F (racemic) [Example I-028] was tested on Cyperus esculentus (CYPES); the reported Pre-emergence activity against CYPES is 80%

Item CS(=O)(=O)CCOC(=O)CC1CCC(=O)N1Cc1cccc(F)c1F (racemic) [Example I-009] was tested on Cyperus esculentus (CYPES); the reported Pre-emergence activity against CYPES is 80%

Item COc1ccc(SCCOC(=O)CC2CCC(=O)N2Cc2cccc(F)c2F)cc1 (racemic) [Example I-040] was tested on Cyperus esculentus (CYPES); the reported Pre-emergence activity against CYPES is 80%

Item COC(=O)[C@H](Cc1c[nH]cn1)NC(=O)CC1CCC(=O)N1Cc1cccc(F)c1F (single isomer, unassigned) [Example I-037] was tested on Cyperus esculentus (CYPES); the reported Pre-emergence activity against CYPES is 100%

Item CS(=O)(=O)NC(=O)CC1CCC(=O)N1Cc1cccc(F)c1F (racemic) [Example I-012] was tested on Cyperus esculentus (CYPES); the reported Pre-emergence activity against CYPES is 80%

Item COCC(=O)CC(=O)CNC(=O)CC1CCC(=O)N1Cc1cccc(F)c1F (racemic) [Example I-006] was tested on Cyperus esculentus (CYPES); the reported Pre-emergence activity against CYPES is 90%

Item C#CCOC(=O)CC1CCC(=O)N1Cc1cccc(F)c1F (racemic) [Example I-023] was tested on Cyperus esculentus (CYPES); the reported Pre-emergence activity against CYPES is 80%

Where these numbers come from: patent US20240199542A1
